Source of measurements: the supplement of paper PMC9170038

- System: MS2 coat protein
- assayInfo: apparent KD of MS2 coat protein; designed switch direction (-1 OFF switch, 1 ON switch): -1; higher = weaker reporter binding
- settings: input ligand: FMN 200 uM
apparent KD of MS2 coat protein for assorted sequences
Output spec: scalar in nM, unitless text.

Worked examples, 2 sequences total:
UAGAGAGAUAAGGAUAUCUAUUAAAUUGUGCGUAGAGAAGGUAUCACAUGAGGAUCACCCAUGUGGUCUAAUAA [Eternabot (L1) Solution 88] (Eterna round: R97, puzzle: Exclusion 6)    29.7
UACAUGUGAGGAUAUGUACGAAGCCCGGCUGGGCCUCGCAGGCAGAAGGCACAUGAGGAUCACCCAUGUGACCG [Enanvezave] (Eterna round: R96, puzzle: Exclusion 4)    82.6

# evaluate next
Q: apparent KD of MS2 coat protein lookup needed for CUAAUUAGAGGAUAUACAUGAGGAUCACCCAUGUUCUUCAAGUCGCCAACGGCAUAACGUAGAAGGCUGAGUGG [Eternabot (L1) Solution 32] (Eterna round: R97, puzzle: Exclusion 3) , thanks.
Result: 26.4

====

- Tested on: MS2 coat protein
- assayInfo: apparent KD of MS2 coat protein; designed switch direction (-1 OFF switch, 1 ON switch): -1; higher = weaker reporter binding
- settings: input ligand: none
Measured apparent KD of MS2 coat protein values are reported for all entries that follow.
Numeric only. Scale: µM

Some solved cases for reference:
GCUCAGUAAGGAUAUUGUUUAGGAGCUAUAGGCGUAGUUAACAAGAAGGUACAUGAGGAUCACCCAUGUCCAUC [Eternabot (L2) Solution 36] (Eterna round: R97, puzzle: Exclusion 4)    0.0151
CCGCUGUGAGGAUAUUAGUAGUAGUCAGAAAAGACUAUUACUGAGAAGGCACAUGAGGAUCACCCAUGUUGCGG [Mat - Exclusion 4 - Eli Mod - D48] (Eterna round: R97, puzzle: Exclusion 4)    0.0382
UAAUGUAUAUAGGAUAUCUAGCUGGAAACAGCUAGAGAAGGAUGUACAUGAGGAUCACCCAUGUAAAUCAGUGA [Ex6/14-B1] (Eterna round: R97, puzzle: Exclusion 6)    0.0554
CAGCUGUCAGGAUAUCGUGCAUACAACGAAAGUUCUAUGUGCGAGAAGGGACAUGAGGAUCACCCAUGUUUCCG [Omei Ex4 A23] (Eterna round: R97, puzzle: Exclusion 4)    0.0161

Pending sequence:
Q: Kindly state the measured apparent KD of MS2 coat protein obtained for ACUUACUGAGGAUAUACAUAGAUUUACAUGAGGAUCACCCAUGUUCCUCUAUGUAUAAAUGUAGAAGGCAGAAGUU [Mat - Exclusion 5 - JL Mod - D56] (Eterna round: R97, puzzle: Exclusion 5) with MS2 coat protein.
Result: 0.0215

====

- Tested on: MS2 coat protein
- assayInfo: apparent KD of MS2 coat protein; designed switch direction (-1 OFF switch, 1 ON switch): 1; higher = weaker reporter binding
- settings: input ligand: none
measuredQuantity: apparent KD of MS2 coat protein
# include the unit after the value

GCUACCAAAGAAGCCAACAUGAGGAUCACCCAUGUAUGUUGGUAGGAUAUCGUUUGCAAAGCGAACGAGAAGGGCUAAGGUAGC [Mat - Same State NG 3 - JL Mod - D85] (Eterna round: R96, puzzle: Same State NG 3)    101 nM

Next, consider the following sequence.
Q: State the recorded apparent KD of MS2 coat protein for this entry: GCAGGACAUGAGGAUCACCCAUGUCUCAAAUAUUGAGGAUAUGGACACGGUAUAUCCGAACCAGAAGGCAACCUGC [SS1 Teenbexe 20] (Eterna round: R96, puzzle: Same State 1)
Result: 43.7 nM

====

- Test system: MS2 coat protein
- assayInfo: apparent KD of MS2 coat protein, switch ON state; designed switch direction (-1 OFF switch, 1 ON switch): 1; higher = weaker reporter binding
- settings: FMN input: 0 or 200 uM; Eterna round: R93 (includes R88 designs)
Reported apparent KD of MS2 coat protein values are given for each entry in this list.
A complete answer gives the number followed by the unit.

AUAACACAUGAGGAUCACCCAUGUAGAAACAAGUCAGGAUAUCCGAUCCACAUGUGAAAAGGAGAAGGGACACUAA [SS 1 Tesla 6]    37.4 nM
GACAGACAUGAGGAUCACCCAUGUACAAACGUACAAGGAUAUGUGUGGAAACCGUACUAUACAGAAGGUGUAUGUC [SS1 - 91]    42 nM
AACUACAUUAUGAAGGAUAUCCACAUCAAGACAUGAGGAUCACCCAUGUAAACUUAGAACAUACAGGAGAAGGUCAAGGGUGAAU [JR_SS002_Sub1206]    234 nM
CGGAGACAUGAGGAUCACCCAUGUGAGAAGAGGCGAGGAUAUCGAAAGAAAGAAGAGAAACGAGAAGGCGCGAGAA [salish99-SS1-065]    20.4 nM
AGACAUAACAGAGAGGAUAUCCAAUAGAAAACAUGAGGAUCACCCAUGUGAAAGAUAAUAAAAUGGGAGAAGGCUCACAUACAGA [Topaz 40]    19.5 nM

# input for lookup
Q: Hi! What's the reported apparent KD of MS2 coat protein for AAAAAACAUGAGGAUCACCCAUGUAAAAAAAUGGGAGGAUAUACAAAGACGAAAGUCAAAGUAGAAGGCCUGAAAA [same state 4] on MS2 coat protein?
Result: 29.8 nM

====

- Tested on: MS2 coat protein
- assayInfo: apparent KD of MS2 coat protein; designed switch direction (-1 OFF switch, 1 ON switch): -1; higher = weaker reporter binding
- settings: input ligand: none
Recorded apparent KD of MS2 coat protein, one value per entry.
Include the unit right after the number.

Worked set:
GCUGGAAAAGGAUAUACAUAACGUGCGUCGGCACGAGAUCUACAUGAGGAUCACCCAUGUAGAAGGUUUCCAGC [EX2 #73] (Eterna round: R97, puzzle: Exclusion 2)    14.3 nM
GUGUAAUGUGAGGAUAUGUGUUUCGUUAGCUGCACAGAAGGCACAACAUGAGGAUCACCCAUGUGGGCAGGGCC [Eternabot (L1) Solution 10] (Eterna round: R97, puzzle: Exclusion 6)    19 nM
UUAUAACAUGUAGGAUAUGCGUGGCGAAGCUAUGCAGAAGGACAUGAGGAUCACCCAUGUUCCUGCGUCCGCGUACGGAUGCAA [JL Eng1 1.21 mod 1] (Eterna round: R96, puzzle: Exclusion NG 1)    14.3 nM

Q: Please give the measured apparent KD of MS2 coat protein for this sequence: CUCCAGCAAGGAUAUACAUAGUGACGUCUGUUUAAUCUUAAACAUGAGGAUCACCCAUGUAGAAGGUGCGUCAC [Biqugeza] (Eterna round: R97, puzzle: Exclusion 2)
Result: 17.1 nM

Q: Queued: CUCCCUCGGGUUAGGAUAUGCUACUGGCUUCAGAUGCAGAAGGAACAUGAGGAUCACCCAUGUACCAAAUAAAA [BmEX4 B.15] (Eterna round: R97, puzzle: Brourd's mod of Exclusion 4)
Result: 14.5 nM

Q: Same thing, different sequence: CCAGCGGACAAAGGAUAUUGCGGUGACCGGCUCGGCGUACCGAGCCUACAUGAGGAUCACCCAUGUAAGAAGGUUGUCGUAGGA [Mat - Exclusion NG 2 - Mod of JL - D73] (Eterna round: R96, puzzle: Exclusion NG 2)
Result: 19.5 nM

Q: Same question, GUUUUAUAUGAAGGAUAUACUUAACAUGAGGAUCACCCAUGUGGUGUUGUGAGUGAGUGAGUUUAGUAGAAGGUCAAUGAUUUU [JMF's solution 77] (Eterna round: R96, puzzle: Exclusion NG 2) this time
Result: 473 nM

Q: Would you mind doing AACGUCUAGGUAGGAUAUCCACCAACAGGUGGAAGGAUAUGGAAACAGAAGGUUCGCCAACAGGCGGAGAAGGACCUACGCGUA [pwkr exNG2 2xF7 2xFMN.25] (Eterna round: R96, puzzle: Exclusion NG 2) as well?
Result: 387 nM

Q: Repeat with UCUUUAUUUGUGAGGAUAUCGAUAAAAUGGAUUGUCGAGAAGGCACAUGAGGAUCACCCAUGUGUGGAACAGCA [JR_BMEx4_Sub024] (Eterna round: R97, puzzle: Brourd's mod of Exclusion 4)
Result: 18.8 nM

Q: Now try AAAACUGGUGUUAGGAUAUUCCUAGGAAAGCUUGGGAAGAAGGGACAUGAGGAUCACCCAUGUCCAGUGAUCAG [Eternabot (Original) Solution 19] (Eterna round: R97, puzzle: Brourd's mod of Exclusion 4) .
Result: 21.6 nM

Q: Cool, now GGGCCGGCCGGAGGAUAUGCGGCUUGGUUGGUCGGUGGGCCGGCCGGGACAUGAGGAUCACCCAUGUAGAAGGCUGGUUGGUUC [less GC, MS2 in another position, A 14%] (Eterna round: R96, puzzle: Exclusion NG 2)
Result: 60.7 nM
